Quick reference: IC50 of the listed items.
Test system: MCF7
Assay: Cytotoxicity against estrogen receptor-positive human MCF7 cells expressing wild type p53 after 48 hrs by SRB assay
Type: functional, cell-based
Settings: MCF7, 48 h
Field format: number, assumed µM, no unit text.

Check out these entries, answers already filled in.
[[record]]
compound = "CCn1cc(-c2nc3ccc(Cl)cc3[nH]2)c(=O)c2cc(F)c(N3CCNCC3)cc21"
measure = "IC50"
recorded_number = 4.5

[[record]]
compound = "CC[C@@]1(O)C(=O)OCc2c1cc1n(c2=O)Cc2cc3c(CN(C)C)c(O)ccc3nc2-1"
measure = "IC50"
recorded_number = 2

[[record]]
compound = "CCn1cc(-c2nc3ccc([N+](=O)[O-])cc3o2)c(=O)c2cc(F)c(N3CCNC(C)C3)c(F)c21 (stereo unspecified)"
measure = "IC50"
recorded_number = 6.8


Now consider a different compound.
get_value(item= `CCn1cc(-c2nc3ccccc3[nH]2)c(=O)c2cc(F)c(N3CCNCC3)nc21` , readout=IC50) returns 9.5
